B1: mRNA-splicing (parent)
chain: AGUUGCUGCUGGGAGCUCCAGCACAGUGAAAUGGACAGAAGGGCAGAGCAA

variants of: B1; test: exon inclusion enrichment index; higher = more inclusion; WT1 exon 5 minigene, HEK293
Binary classification by exon inclusion enrichment index, with 0.4 as an inclusive lower bound for 1 (yes); all other cases are 0 (no).

Examples from the recorded data:
| Residue change | Group |
| --- | --- |
| C6G U7G | 0 (no) |
| C6A U7A C9U U10A | 0 (no) |
| G5C C6U G8C C9U U10C A45C G46U | 1 (yes) |
| G41U | 0 (no) |
| G5C C6U G8C C9U U10C A30G A31C | 0 (no) |

Next variant, please.
Dear colleague, could you confirm whether G5C C6U G8C C9U U10C C16U U17A has exon inclusion enrichment index at or above 0.4?
1 (yes)
